- Measured on: IGF-1 receptor (Homo sapiens, UniProt P08069)
- Sequence (P08069 31-736 limits assumed): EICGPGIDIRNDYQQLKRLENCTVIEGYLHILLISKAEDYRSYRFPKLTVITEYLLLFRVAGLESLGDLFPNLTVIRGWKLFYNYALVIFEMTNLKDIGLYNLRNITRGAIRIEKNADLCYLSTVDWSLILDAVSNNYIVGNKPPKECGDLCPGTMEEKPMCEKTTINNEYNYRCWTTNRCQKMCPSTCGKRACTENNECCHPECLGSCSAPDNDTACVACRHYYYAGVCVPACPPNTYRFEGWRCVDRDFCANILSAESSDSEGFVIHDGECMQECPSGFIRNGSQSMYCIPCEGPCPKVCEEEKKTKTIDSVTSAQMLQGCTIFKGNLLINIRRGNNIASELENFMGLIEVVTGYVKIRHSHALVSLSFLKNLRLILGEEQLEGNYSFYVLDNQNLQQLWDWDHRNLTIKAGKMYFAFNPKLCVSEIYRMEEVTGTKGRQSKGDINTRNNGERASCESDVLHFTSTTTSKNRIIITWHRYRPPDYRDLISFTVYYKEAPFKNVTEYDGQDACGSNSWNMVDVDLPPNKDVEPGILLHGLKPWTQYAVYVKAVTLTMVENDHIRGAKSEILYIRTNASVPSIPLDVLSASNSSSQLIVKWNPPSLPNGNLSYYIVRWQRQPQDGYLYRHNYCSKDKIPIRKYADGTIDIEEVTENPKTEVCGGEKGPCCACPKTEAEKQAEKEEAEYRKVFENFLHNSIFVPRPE
- Assay comment: 125I IGF-1 binding to human placental plasma membranes (HPPM)
- Parameters: from tissue; host or cells: human placenta, plasma membranes
- Condition set: HPPM; read-out: apparent Ki, displacement of 125I IGF-1 binding
pKi: −log10 of the molar value.
Reported endpoint: pKi

IN: Please provide the recorded pKi for CCCc1c(OCCCOc2ccc(C(C)=O)c(OC)c2CCC)ccc2c1OC(C(=O)O)CC2 (stereo not shown) , tested on IGF-1 receptor (Homo sapiens, UniProt P08069).
OUT: 2.89 to 3.10

====

# Ki values compiled below
- Measured on: insulin receptor (Homo sapiens)
- Sequence (P06213 28-758 limits assumed): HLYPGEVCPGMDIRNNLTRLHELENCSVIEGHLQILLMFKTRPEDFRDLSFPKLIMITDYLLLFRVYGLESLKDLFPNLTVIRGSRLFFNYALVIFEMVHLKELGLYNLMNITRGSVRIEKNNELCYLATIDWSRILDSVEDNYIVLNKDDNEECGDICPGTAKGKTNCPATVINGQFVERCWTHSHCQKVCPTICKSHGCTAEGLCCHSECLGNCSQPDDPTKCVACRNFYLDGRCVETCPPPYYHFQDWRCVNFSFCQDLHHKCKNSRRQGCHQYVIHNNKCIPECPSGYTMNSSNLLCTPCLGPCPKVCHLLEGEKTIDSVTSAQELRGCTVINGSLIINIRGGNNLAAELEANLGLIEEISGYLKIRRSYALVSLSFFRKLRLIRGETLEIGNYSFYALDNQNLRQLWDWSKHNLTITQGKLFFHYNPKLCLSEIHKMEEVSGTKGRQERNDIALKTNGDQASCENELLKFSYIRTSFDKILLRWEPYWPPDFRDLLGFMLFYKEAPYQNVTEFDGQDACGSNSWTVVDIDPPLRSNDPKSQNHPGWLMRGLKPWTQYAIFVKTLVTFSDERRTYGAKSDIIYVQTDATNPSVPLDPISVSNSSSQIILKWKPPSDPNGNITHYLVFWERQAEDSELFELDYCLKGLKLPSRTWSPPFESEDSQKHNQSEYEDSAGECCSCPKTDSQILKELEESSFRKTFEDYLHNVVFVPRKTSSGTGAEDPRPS
- Assay comment: 125I insulin binding, insulin receptors from a number of sources
- Design: host or cells: several: placental membranes, CHO.T11 cells, WGA purified receptors
- Condition set: range over receptor sources

{"Compound": "CCCc1c(OCCCOc2cc(O)c(-c3cc[nH]n3)cc2CC)ccc2c1OC(C(=O)O)CC2 (centres unmarked)", "Ki": "200 to 450 µM"}

Then this compound:
IN: What does the data say about its Ki? Entry: `O=C(O)c1cc2ccccc2c(Cc2c(O)c(C(=O)O)cc3ccccc23)c1O`
OUT: 100 to 400 µM
